# Tested on: HH CTCL cell line
# PROTOCOL DESCRIPTION: Monolayer growth inhibition assay (MTT/MTS), HH
# Assay type: cell-based
# RUN CONDITIONS: Homo sapiens, HH, 72 h, read-out: IC50 (concentration required to inhibit cell growth by 50%)
MEASURED METRIC: pIC50
In plain terms, pIC50 is the concentration in mol/L turned into minus its base-10 logarithm.

Q: Which pIC50 is reported for this molecule? `Cc1[nH]c2ccccc2c1CCNCc1ccc(/C=C/C(=O)NO)cc1`
Ans: 9.15
